target.entity: protein kinase C alpha (Homo sapiens, UniProt P17252)
method.notes: PKC Enzyme assay, alpha isozyme
Assay type: biochemical
recorded.conditions: PKC alpha; 30 μM ATP, 30° C., 10 minutes; read-out: IC50 α
readout.name: pIC50
// pIC50 here means minus log10 of the molar concentration (mol/L)

Query Cn1cc(C2=C(c3c4n(c5ccccc35)CCC(CO)(CO)C4)C(=O)NC2=O)c2ccccc21 [Example 2] yields pIC50 of 5.46

Entry under test: CC(=O)OCC1(COC(C)=O)CCn2c(c(C3=C(c4cn(C)c5ccccc45)C(=O)NC3=O)c3ccccc32)C1 [Example 1] . Its pIC50 was 5.01

pIC50 measured on CC(C)N1CCC(n2cc(C3=C(c4cn(C)c5ccccc45)C(=O)NC3=O)c3ccccc32)CC1 [Example 8] = 6.47

# pIC50 (compound: CCN1CCC(n2cc(C3=C(c4cn(C)c5ccccc45)C(=O)NC3=O)c3ccccc32)CC1 [Example 40] ) is 6.40

Where do the numbers come from? From patent US5668152A.
